System: Helminthosporium oryzae
Assay Method Text: Mycelial growth test
Condition Set: Bipolaris oryzae, 72 h, read-out: Percent Fungus Growth Inhibition, HO, 40 ppm, 72 hours
Listing: inhibition at 40 ppm of selected molecules
Write it as a number; the unit % goes unstated.

These solved cases illustrate the format of a correct answer.
Cc1cc(Oc2nsnc(Cl)c2=O)cc(C)c1Cl; 100
Cc1cc(Cl)c(Oc2nsnc(Cl)c2=O)cc1C; 69
COc1ccc(Cl)c(Oc2nsnc(Cl)c2=O)c1; 100
O=c1c(Cl)nsnc1Oc1cccc(Cl)c1; 81
O=c1c(Cl)nsnc1Oc1cccc2ccccc12; 100
O=c1c(Cl)nsnc1Oc1ccccc1Br; 100
Cc1ccccc1Oc1nsnc(Cl)c1=O; 100
Cc1cc(Oc2nsnc(Cl)c2=O)ccc1Cl; 100
O=c1c(Cl)nsnc1Oc1ccc(Cl)c(Cl)c1; 82
O=C(OCc1ccccc1)Oc1ccc(Oc2nsnc(Cl)c2=O)cc1; 100

Here is another molecule to look at.
Value lookup for inhibition at 40 ppm; key = CC(=O)c1cccc(Oc2nsnc(Cl)c2=O)c1
100

----------
Test system: Cladosporium cucumerinum
Assay Method Text: Mycelial growth test
Assay type: cell-based
Condition Set: Cladosporium cucumerinum, 72 h, CC, 10 ppm, read-out: Percent Fungus Growth Inhibition
Description: |CC = Cladosporium cucumerinum
Binary call on inhibition at 10 ppm: 1 from 40% upward, -1 beneath that.

O=c1c(Cl)nsnc1Oc1ccc(F)cc1 [Compound 11]; 1
O=c1c(Cl)nsnc1Oc1ccccc1Cl [Compound 14]; 1
Cc1ccc(Cl)c(Oc2nsnc(Cl)c2=O)c1 [Compound 56]; -1

Entry Cc1ccc(Oc2nsnc(Cl)c2=O)c(C)c1 [Compound 23] : is its inhibition at 10 ppm no less than 40%?
-1

Entry O=c1c(Cl)nsnc1Oc1cccc(Cl)c1Cl [Compound 19] : is its inhibition at 10 ppm no less than 40%?
1

Entry O=c1c(Cl)nsnc1Oc1ccc(Cl)cc1 [Compound 12] : is its inhibition at 10 ppm no less than 40%?
1

Entry Cc1ccc(Oc2nsnc(Cl)c2=O)c(Br)c1 [Compound 57] : is its inhibition at 10 ppm no less than 40%?
1

Entry Cc1ccc(Oc2nsnc(Cl)c2=O)cc1 [Compound 3] : is its inhibition at 10 ppm no less than 40%?
1

Entry Cc1cc(C)cc(Oc2nsnc(Cl)c2=O)c1 [Compound 25] : is its inhibition at 10 ppm no less than 40%?
1

Entry CNC(=O)Nc1ccc(Oc2nsnc(Cl)c2=O)cc1 [Compound 28] : is its inhibition at 10 ppm no less than 40%?
-1

Entry CC(=O)Nc1ccccc1Oc1nsnc(Cl)c1=O [Compound 43] : is its inhibition at 10 ppm no less than 40%?
-1

Entry CC(=O)c1cccc(Oc2nsnc(Cl)c2=O)c1 [Compound 48] : is its inhibition at 10 ppm no less than 40%?
-1

Entry O=c1c(Cl)nsnc1Oc1c(Cl)cccc1Cl [Compound 18] : is its inhibition at 10 ppm no less than 40%?
1

Entry CC(=O)c1ccccc1Oc1nsnc(Cl)c1=O [Compound 49] : is its inhibition at 10 ppm no less than 40%?
-1

Entry O=C(Nc1ccccc1)Nc1ccc(Oc2nsnc(Cl)c2=O)cc1 [Compound 29] : is its inhibition at 10 ppm no less than 40%?
-1

Entry CC(C)(C)c1ccc(Oc2nsnc(Cl)c2=O)cc1 [Compound 4] : is its inhibition at 10 ppm no less than 40%?
-1

Entry O=c1c(Cl)nsnc1Oc1ccc(O)cc1 [Compound 35] : is its inhibition at 10 ppm no less than 40%?
-1

Entry N#CCc1ccc(Oc2nsnc(Cl)c2=O)cc1 [Compound 46] : is its inhibition at 10 ppm no less than 40%?
-1

Entry CSc1ccc(Oc2nsnc(Cl)c2=O)cc1 [Compound 39] : is its inhibition at 10 ppm no less than 40%?
-1

Entry O=c1c(Cl)nsnc1Oc1cccc2ccccc12 [Compound 32] : is its inhibition at 10 ppm no less than 40%?
1

Entry COc1cc(Cl)cc(Oc2nsnc(Cl)c2=O)c1 [Compound 52] : is its inhibition at 10 ppm no less than 40%?
1

Entry Cc1cc(Cl)c(Oc2nsnc(Cl)c2=O)cc1C [Compound 58] : is its inhibition at 10 ppm no less than 40%?
1

----------
Tested on: Uromyces phaseoli
Assay Method Text: whole plant or invertebrate
Condition Set: foliar, 24 h, read-out: Percent Disease Control, curative, bean rust
Listing: pest or weed control at 150 ppm of selected compounds
State the value, then name its unit.

O=C(Nc1ccccc1)Nc1ccc(Oc2nsnc(Cl)c2=O)cc1; 0%
CS(=O)(=O)c1ccc(Oc2nsnc(Cl)c2=O)cc1; 0%
O=c1c(Cl)nsnc1Oc1ccc(Cl)cc1; 0%
O=c1c(Cl)nsnc1Oc1ccccc1; 0%
Cc1cccc(Oc2nsnc(Cl)c2=O)c1; 0%

Value lookup for pest or weed control at 150 ppm; key = O=c1c(Cl)nsnc1Oc1ccc(O)cc1
0%

Value lookup for pest or weed control at 150 ppm; key = CC(=O)Nc1ccccc1Oc1nsnc(Cl)c1=O
0%

Value lookup for pest or weed control at 150 ppm; key = O=C(OCc1ccccc1)Oc1ccc(Oc2nsnc(Cl)c2=O)cc1
100%

Value lookup for pest or weed control at 150 ppm; key = O=c1c(Cl)nsnc1Oc1ccc([N+](=O)[O-])cc1
0%

Value lookup for pest or weed control at 150 ppm; key = Cc1cc(Oc2nsnc(Cl)c2=O)cc(C)c1Br
0%

Value lookup for pest or weed control at 150 ppm; key = CC(C)(C)c1ccc(Oc2nsnc(Cl)c2=O)cc1
75%

Value lookup for pest or weed control at 150 ppm; key = CC(=O)c1cccc(Oc2nsnc(Cl)c2=O)c1
0%

Value lookup for pest or weed control at 150 ppm; key = O=c1c(Cl)nsnc1Oc1cccc2ccccc12
0%

----------
Tested on: Uromyces phaseoli
Assay Method Text: Spore germination test
Assay type: cell-based
Condition Set: UP, 10 ppm, 48 hours
Recorded Endpoint: Spore Germination Rating

These solved cases illustrate the format of a correct answer.
Cc1ccc(Oc2nsnc(Cl)c2=O)cc1; 0 (0-10)
O=c1c(Cl)nsnc1Oc1ccc(Cl)cc1Cl; 0 (0-10)
O=c1c(Cl)nsnc1Oc1ccccc1Cl; 0 (0-10)
O=c1c(Cl)nsnc1Oc1ccc([N+](=O)[O-])cc1; 0 (0-10)
Cc1ccc(Oc2nsnc(Cl)c2=O)c(Br)c1; 0 (0-10)
CC(=O)Nc1ccccc1Oc1nsnc(Cl)c1=O; 4 (80-100)
Cc1cc(Oc2nsnc(Cl)c2=O)ccc1Cl; 0 (0-10)
COc1cc(Oc2nsnc(Cl)c2=O)cc(OC)c1C(C)=O; 2 (40-60)
N#CCc1ccc(Oc2nsnc(Cl)c2=O)cc1; 0 (0-10)
O=C(Nc1ccccc1)Oc1ccc(Oc2nsnc(Cl)c2=O)cc1; 1 (10-40)

Return Spore Germination Rating measured with Uromyces phaseoli given this compound: N#Cc1ccc(Oc2nsnc(Cl)c2=O)cc1
0 (0-10)

Return Spore Germination Rating measured with Uromyces phaseoli given this compound: O=C(O)c1ccc(Oc2nsnc(Cl)c2=O)cc1
2 (40-60)

Return Spore Germination Rating measured with Uromyces phaseoli given this compound: COc1ccc(Cl)c(Oc2nsnc(Cl)c2=O)c1
0 (0-10)

Return Spore Germination Rating measured with Uromyces phaseoli given this compound: O=c1c(Cl)nsnc1Oc1cccc2ccccc12
0 (0-10)

Return Spore Germination Rating measured with Uromyces phaseoli given this compound: CNC(=O)Nc1ccc(Oc2nsnc(Cl)c2=O)cc1
2 (40-60)

Return Spore Germination Rating measured with Uromyces phaseoli given this compound: O=c1c(Cl)nsnc1Oc1ccc(Br)cc1
0 (0-10)

Return Spore Germination Rating measured with Uromyces phaseoli given this compound: C[S+]([O-])c1ccc(Oc2nsnc(Cl)c2=O)cc1 (stereo not shown)
1 (10-40)

Return Spore Germination Rating measured with Uromyces phaseoli given this compound: Nc1ccc(Oc2nsnc(Cl)c2=O)cc1
4 (80-100)

Return Spore Germination Rating measured with Uromyces phaseoli given this compound: CC(=O)Nc1cccc(Oc2nsnc(Cl)c2=O)c1
1 (10-40)

Return Spore Germination Rating measured with Uromyces phaseoli given this compound: COc1cc(Cl)cc(Oc2nsnc(Cl)c2=O)c1
0 (0-10)

Return Spore Germination Rating measured with Uromyces phaseoli given this compound: CS(=O)(=O)c1ccc(Oc2nsnc(Cl)c2=O)cc1
0 (0-10)

Return Spore Germination Rating measured with Uromyces phaseoli given this compound: O=c1c(Cl)nsnc1Oc1ccccc1Br
0 (0-10)

----------
Listing: Spore Germination Rating of selected molecules
Test system: Uromyces phaseoli
Assay Method Text: Spore germination test
Type: cell-based
Condition Set: UP, 2.5 ppm, 48 hours
Experimental: The test chemical was dissolved or suspended in acetone in an amount such that 0.8 ml of the resulting suspension or solution, mixed with 40 ml water agar produced a water agar solution containing 40, 10, 2.5 and 1 ppm of test chemical. The resulting agar solution, at 50° C., was then divided equally between two sterile petri dishes, each having four separated quadrants, and allowed to solidify. […] Readings were then taken and the percentage of germinated spores calculated. […]

These solved cases illustrate the format of a correct answer.
Cc1ccc(Oc2nsnc(Cl)c2=O)c(C)c1 [Compound 23]; 4 (80-100)
O=c1c(Cl)nsnc1Oc1c(Cl)cc(Cl)cc1Cl [Compound 30]; 0 (0-10)
COc1cc(Cl)cc(Oc2nsnc(Cl)c2=O)c1 [Compound 52]; 0 (0-10)
Cc1cc(Oc2nsnc(Cl)c2=O)cc(C)c1Br [Compound 60]; 0 (0-10)
CC(=O)c1ccc(Oc2nsnc(Cl)c2=O)cc1 [Compound 47]; 0 (0-10)

Here is another molecule to look at.
Value lookup for Spore Germination Rating; key = N#Cc1ccc(Oc2nsnc(Cl)c2=O)cc1 [Compound 10]
0 (0-10)
